# assay_summary: Novel Modifiers of Survival Motor Neuron (SMN) Protein: Gene Identification via Genome-wide siRNA Screen;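 also: luminescence tracks full-length SMN protein made from the SMN2 reporter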
# setup_conditions: HEK293T SMN2-luciferase reporter, siRNA knockdown, 72 h; actives lie on both sides
The campaign covered roughly 31,000 sequences. About 1,400 (4.5%) were called active.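 The calls were made as follows: active = median seed-adjusted z-score above 1 or below -1; inactive = the rest.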 Only a selection was taken, and actives are over-represented in it overall.
Respond with a class label; see active, inactive

Example cases with answers are listed next.
In [3]: df
Out[3]:
                         sequence_text  group_label
0   GCAUUUUCCGCCUACCACATT against POLM       active
1   CCAACGACCUGGUUAUGAATT against FBP1     inactive
2   GAAUUUUGAUGGACAAGUUTT against RAG2     inactive
3  AGAACAUCAUCGCGCGGGATT against FOXB1     inactive
4  GAAAGAUUGUACCAGUUGATT against CMPK1     inactive

Kindly consider the entry below.
Query: Fill in: this test's call for AGCUGACCGAGUUCCUGCATT against GAL3ST1 is ___
Reply: inactive
